# Tested on: MALME-3M melanoma
# Assay details: NCI tumour cell line growth inhibition, 48 h
Readout name: TGI

Would you mind telling me what TGI value was observed for CC1SC2=NC3=C(c4ccccc4C3=O)C(c3ccc(F)cc3)N2C1=O (centres undefined) ?
> 100 µM

Would you mind telling me what TGI value was observed for "C/C(=N/NC(=S)Nc1ccc([N+](=O)[O-])cc1)c1cccc(/C(C)=N\NC(=S)Nc2ccc([N+](=O)[O-])cc2)n1" ?
9.13 µM

Would you mind telling me what TGI value was observed for "N=c1oc2c(Cl)cc(Cl)cc2cc1C(=O)Nc1cccc2ccccc12" ?
> 100 µM

Would you mind telling me what TGI value was observed for "CC#C[C@]1(O)CC[C@H]2[C@@H]3CCC4=CC(=O)CCC4=C3[C@@H](c3ccc4c(c3)OCO4)C[C@@]21C" ?
556 µM

Would you mind telling me what TGI value was observed for "O=c1cc(-c2ccccc2)[nH]c2ccccc12" ?
> 100 µM

Would you mind telling me what TGI value was observed for CC1CNc2ccccc2N=C1NN (centres undefined) ?
> 100 µM

Would you mind telling me what TGI value was observed for "O=C(c1cccc2ccccc12)C1(Br)S(=O)(=O)OCCOS1(=O)=O" ?
> 100 µM

Would you mind telling me what TGI value was observed for "c1ccc([P+](Cc2ccc(C[P+](c3ccccc3)(c3ccccc3)c3ccccc3)cc2)(c2ccccc2)c2ccccc2)cc1" ?
> 100 µM

Would you mind telling me what TGI value was observed for "CCNCCNc1c2ccccc2nc2ccccc12" ?
4.6 µM

Would you mind telling me what TGI value was observed for "CN(C)CC(=O)Nc1ccc(Cn2nnc3c2C(=O)c2nnn(Cc4ccc(NC(=O)CN(C)C)cc4)c2C3=O)cc1" ?
0.266 µM

Would you mind telling me what TGI value was observed for CC(=O)OCC1OC(OC2C(CSC3OC(COC(C)=O)C(OC(C)=O)C(OC(C)=O)C3OC(C)=O)OC(OC(C)=O)C(OC(C)=O)C2OC(C)=O)C(OC(C)=O)C(OC(C)=O)C1OC(C)=O (centres undefined) ?
> 100 µM

Would you mind telling me what TGI value was observed for CC(=O)NC(CS/N=N/c1nc[nH]c1C(N)=O)C(=O)O (centres undefined) ?
> 29.3 µM

Would you mind telling me what TGI value was observed for CCSCCC(N)C(=O)O (centres undefined) ?
> 100 µM

Would you mind telling me what TGI value was observed for "NCCOCCOCCNc1nc(Cc2ccccc2)nc(NCCCN2CCCC2=O)n1" ?
> 100 µM

Would you mind telling me what TGI value was observed for "O=[N+]([O-])c1ccc(-c2nnc(C34CC5CC(CC(C5)C3)C4)o2)cc1" ?
> 100 µM

Would you mind telling me what TGI value was observed for "CC(=O)OCOC(=O)CN(CC(=O)OCOC(C)=O)Cc1cc2c(cc1OC(C)=O)Oc1cc(OC(C)=O)c(CN(CC(=O)OCOC(C)=O)CC(=O)OCOC(C)=O)cc1C21OC(=O)c2ccccc21" ?
1.88 µM

Would you mind telling me what TGI value was observed for C=CC/C=C/Cc1csc(C(C)(C)C(O)C/C=C/C(=C)CCNC(=O)OC)n1 (centres undefined) ?
> 100 µM

Would you mind telling me what TGI value was observed for "CCCNC(=O)c1cc(NC(=O)c2cc(NC(=O)/C=C/c3ccccc3)c(OC)c(OC)c2)c(OC)c(OC)c1" ?
8.74 µM

Would you mind telling me what TGI value was observed for "COc1cccc(-n2ncc3c(N/N=C/c4ccc(C(=O)NCCN(C)C)cc4)ncnc32)c1" ?
7.81 µM

Would you mind telling me what TGI value was observed for CCOC(=O)C1=[N+]([O-])OC2=C(O)CCCC21 (centres undefined) ?
> 100 µM

Would you mind telling me what TGI value was observed for "O=C(/C=C/c1ccccc1)CCN1CCN(CCC(=O)/C=C/c2ccccc2)CC1" ?
30.9 µM

Would you mind telling me what TGI value was observed for CCCC(C)c1cc(Cc2cc(Cl)cc(Cl)c2O)c(O)c(Cc2cc(Cl)cc(Cl)c2O)c1 (centres undefined) ?
6.75 µM

Would you mind telling me what TGI value was observed for "CCc1nccc2c1nc(-c1nonc1N)n2CC" ?
> 25 µM

Would you mind telling me what TGI value was observed for CS(=O)(=O)N1CC(CCl)c2ccc([N+](=O)[O-])cc21 (centres undefined) ?
> 100 µM

Would you mind telling me what TGI value was observed for "CCCNC1=C(C(=O)OCC)C(=O)CO1" ?
> 100 µM

Would you mind telling me what TGI value was observed for CC1=C(C(=O)O)N2C(=O)[C@@H](NC(=O)C(c3ccc(O)cc3)N3CSC(=S)N(C(C)C)C3)C2SC1 (some centres undefined) ?
> 100 µM

Would you mind telling me what TGI value was observed for "COc1ccc(-c2ccc(/C=N/n3c(COc4ccc(Cl)cc4Cl)nn(CN4CCOCC4)c3=S)o2)c([N+](=O)[O-])c1" ?
52.7 µM

Would you mind telling me what TGI value was observed for "Nc1ccn(CCNCCn2cnc3nc(N)[nH]c(=O)c32)c(=O)n1" ?
> 100 µM

Would you mind telling me what TGI value was observed for "O=C(/C=C/c1csc(-c2ccccc2)n1)NCc1ccc(C(=O)NCCc2ccccc2)cc1" ?
> 100 µM

Would you mind telling me what TGI value was observed for CC#CC#C/C=C1/O[C@]2(CCC(OC(C)=O)CO2)[C@@H]2O[C@H]12 (some centres undefined) ?
35.6 µM

Would you mind telling me what TGI value was observed for "COc1ccc2c(C)cc(N/N=C(\C)C=O)nc2c1" ?
28 µM

Would you mind telling me what TGI value was observed for "Cc1ccc(N=Cc2ccc3c(c2)OCO3)cc1C" ?
> 100 µM

Would you mind telling me what TGI value was observed for "CCOC(=O)N(Cc1cccs1)c1cc(OC)c(OC)c(OC)c1" ?
> 100 µM

Would you mind telling me what TGI value was observed for CCC1C(C#N)=C(N)OC2=C1C(=O)CC(C)(C)C2 (centres undefined) ?
> 100 µM

Would you mind telling me what TGI value was observed for O=C1C=C2C(=NC34CCCCC3C(c3ccccc3)C3=C(c5ccccc5CC3)N24)c2ccccc21 (centres undefined) ?
> 10 µM

Would you mind telling me what TGI value was observed for "N#Cc1c(N2CCCC2)[nH]c(=O)c(C(c2c(Cl)cccc2Cl)c2c(O)c(C#N)c(N3CCCC3)[nH]c2=O)c1O" ?
36.4 µM

Would you mind telling me what TGI value was observed for "CCN(CC)CCC(=O)c1ccc(Oc2ccc(Cl)cc2)cc1" ?
34.8 µM

Would you mind telling me what TGI value was observed for "Cn1cccc1-c1cc(-c2cccs2)nc(N)c1C#N" ?
> 100 µM

Would you mind telling me what TGI value was observed for "Oc1cccc2ccc(N/N=C/c3cc(CN4CCCCC4)c(O)c4ncccc34)nc12" ?
4.49 µM
